Data provenance: ChEMBL document CHEMBL1128479

species: Mus musculus; experiment: In vitro inhibition of chondrogenesis in mouse embryo limb bud cells; assay type: functional, cell-based
Listing: log10 IC50 of selected compounds
Would you kindly interpret these values as log10 of IC50 expressed in nM?

Known log10 IC50 results, listed for orientation:
>  <Smiles Representation>
C/C(=C\c1ccc(C(=O)O)s1)c1cc2c(cc1C)C(C)(C)CCC2(C)C

>  <log10 IC50>
1.18

$$$$
>  <Smiles Representation>
C/C(=C\c1ccc(C(=O)O)cc1)c1ccc2c(c1)C(C)(C)CCC2(C)C

>  <log10 IC50>
-1.22

$$$$
>  <Smiles Representation>
CC1=C(/C=C/C(C)=C/C=C/C(C)=C/C(=O)O)C(C)(C)CCC1

>  <log10 IC50>
1.49

$$$$
>  <Smiles Representation>
C/C(=C\c1ccc(C(=O)O)cc1)c1cc2c(cc1C)C(C)(C)CCC2(C)C

>  <log10 IC50>
0.90

$$$$
>  <Smiles Representation>
CC1=C(/C=C/C(C)=C\C=C\C(C)=C\C(=O)O)C(C)(C)CCC1

>  <log10 IC50>
1.76

$$$$

Consider the additional compound presented here.
So, C/C(=C\c1cc(C(=O)O)cs1)c1cc2c(cc1C)C(C)(C)CCC2(C)C ? Its log10 IC50 was 1.80

---

biological target: Retinoic acid receptor beta (Homo sapiens); test: Transcriptional activation of Retinoic acid receptor RAR beta
Sequence (P10826 whole entry): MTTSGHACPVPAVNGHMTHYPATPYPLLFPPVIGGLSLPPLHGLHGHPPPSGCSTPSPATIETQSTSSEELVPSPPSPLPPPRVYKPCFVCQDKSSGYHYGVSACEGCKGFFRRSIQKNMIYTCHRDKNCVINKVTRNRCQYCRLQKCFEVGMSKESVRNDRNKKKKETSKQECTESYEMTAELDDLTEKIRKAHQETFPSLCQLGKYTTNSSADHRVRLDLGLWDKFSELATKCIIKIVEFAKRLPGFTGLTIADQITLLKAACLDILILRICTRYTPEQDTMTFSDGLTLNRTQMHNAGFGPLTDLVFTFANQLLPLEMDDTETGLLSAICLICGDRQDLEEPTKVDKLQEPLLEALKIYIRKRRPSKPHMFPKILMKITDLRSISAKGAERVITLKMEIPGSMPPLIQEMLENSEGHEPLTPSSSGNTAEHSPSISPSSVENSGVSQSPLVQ
The entries below come with measured pEC50 values attached.
// pEC50: -log10(molar conc.)

pEC50 for C/C(=C\c1csc(C(=O)O)c1)c1cc2c(cc1C)C(C)(C)CCC2(C)C is 5.97

// field: pEC50; key: C/C(=C\c1ccc(C(=O)O)s1)c1cc2c(cc1C)C(C)(C)CCC2(C)C ; value = 7.64

// recorded pEC50 for C/C(=C\c1ccc(C(=O)O)cn1)c1cc2c(cc1C)C(C)(C)CCC2(C)C : 7.68

---

This listing pairs compounds with measured EC50.
target: Retinoic acid receptor beta (Homo sapiens); experiment: Transcriptional activation of Retinoic acid receptor RAR beta

Use these answered entries as a reference point.
>  <Smiles Representation>
C/C(=C\c1cc(C(=O)O)cs1)c1cc2c(cc1C)C(C)(C)CCC2(C)C

>  <Target System>
Retinoic acid receptor beta (Homo sapiens)

>  <EC50>
> 10 µM

$$$$
>  <Smiles Representation>
C/C(=C\c1cccc(C(=O)O)c1)c1cc2c(cc1C)C(C)(C)CCC2(C)C

>  <Target System>
Retinoic acid receptor beta (Homo sapiens)

>  <EC50>
> 10 µM

$$$$

# compound C/C(=C\c1ccc(C(=O)O)o1)c1cc2c(cc1C)C(C)(C)CCC2(C)C ; its EC50 = > 10 µM
